target: LAP2, Q96RT1; assay: holdup assay; parameters: key: below the threshold = too weak to quantify, mostly under pKd 3.1 to 4; conditions: plain residues with an end cap or a label only (N-terminal biotin on a linker: ttds)
Sequence (Q96RT1 other isoform, or with tags, fused parts or gaps): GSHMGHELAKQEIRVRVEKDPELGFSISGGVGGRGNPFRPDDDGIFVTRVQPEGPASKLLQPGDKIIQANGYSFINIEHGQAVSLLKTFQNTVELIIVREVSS
This listing pairs binders with measured pKd.
QUANTITY_NAME: pKd

{"columns": ["BINDER", "REPORTED_VALUE"],
 "data": [
  ["GRLLGLETNV [ARHGEF26, Q96DR7]", 4.41],
  ["NPDALPETLV [ARHGAP6, O43182]", 3.8],
  ["PSRDRKETSI [RALBP1, Q15311]", 3.37],
  ["SHSSKGETAV [FZD7, O75084]", 4.04]
]}
